Test system: Human immunodeficiency virus 1
assay_protocol: Anti HIV-1 activity against the virus NL4-3 using MAGI assay
Format: functional, organism-based
experimental_parameters: Human immunodeficiency virus 1, MAGI
readout_label: pEC50
Just so you know, pEC50 here is -log10 of the concentration in molar units; reply with that number alone.

Completed entries (count: 2):
CC(C)C[C@H](NC(=O)CCCCCCCNC(=O)[C@]12CC[C@@H](C(C)C)[C@@H]1[C@H]1CC[C@@H]3[C@@]4(C)CC[C@H](O)C(C)(C)[C@@H]4CC[C@@]3(C)[C@]1(C)CC2)[C@H](O)CC(=O)O = 6.48
C=C(C)[C@@H]1CC[C@]2(C(=O)NCCC(=O)OC)CC[C@]3(C)[C@H](CC[C@@H]4[C@@]5(C)CC[C@H](OC(C)=O)C(C)(C)[C@@H]5CC[C@]43C)[C@@H]12 = 4.57

Q) Would you mind telling me what pEC50 value was observed for "C=C(C)[C@@H]1CC[C@]2(C(=O)NCCCCCCCCCCC(=O)N[C@@H](CC(C)C)C(=O)O)CC[C@]3(C)[C@H](CC[C@@H]4[C@@]5(C)CC[C@H](O)C(C)(C)[C@@H]5CC[C@]43C)[C@@H]12" ?
A) 6.34

Q) # iterate: "C=C(C)[C@@H]1CC[C@]2(C(=O)NCCCCCCCC(=O)N[C@@H](CC(C)C)[C@H](O)CC(=O)O)CC[C@]3(C)[C@H](CC[C@@H]4[C@@]5(C)CC[C@H](O)C(C)(C)[C@@H]5CC[C@]43C)[C@@H]12"
A) 6.40
